EXPERIMENT NOTES: NCI Yeast Anticancer Drug Screen. Data for the sgs1 mgt1 strain (AID 161);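 further: 0% = growth of cultures given vehicle only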
CONDITIONS USED: S. cerevisiae sgs1 mgt1 strain, at 5.0 µM (retest, dose inferred, filed as 0.5), hits give high values
The panel holds about 79,000 compounds, 15% with a hit somewhere; the sample as a whole holds those more often. The source made the active and inactive calls. No stated cut-off is given here; in the data, active means growth inhibition above about 70%; inactive means the rest.
PARAMETER: growth inhibition

[[record]]
molecule = "COC(=O)c1cc[nH]c(=O)c1"
recorded_measurement = "-62% (inactive)"

[[record]]
molecule = "CN(C)c1ccc(/C=C(\\C#N)c2cccc(Cl)c2)cc1"
recorded_measurement = "4% (inactive)"

[[record]]
molecule = "C1=CC2C(c3cccc4ccccc34)O[C@H]2O1 (stereo not given in full)"
recorded_measurement = "13% (inactive)"

[[record]]
molecule = "CC(C)C1=C(O)c2ccccc2C(=O)C1=O"
recorded_measurement = "38% (inactive)"

[[record]]
molecule = "CN(C)/N=N/c1nc(Cc2ccccc2)[nH]c1C(N)=O"
recorded_measurement = "38% (inactive)"

